Exercise: state measured LXR beta actiivty at max dose (%) for each of the compounds provided.
# assayed.target: GST tagged LXRbeta LBD (ligand binding domain) (Homo sapiens, UniProt P55055)
# Construct: purchased Invitrogen pv4658.pps
# Sequence (P55055 222-460 limits assumed): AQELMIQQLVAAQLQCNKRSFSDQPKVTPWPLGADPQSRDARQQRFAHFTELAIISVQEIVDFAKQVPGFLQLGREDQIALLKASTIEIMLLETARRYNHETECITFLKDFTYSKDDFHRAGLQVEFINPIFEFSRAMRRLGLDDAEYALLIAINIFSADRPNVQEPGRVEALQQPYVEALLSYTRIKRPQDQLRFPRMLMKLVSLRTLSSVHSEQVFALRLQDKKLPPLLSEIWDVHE
# experiment: LanthaScreen TR-FRET Liver X Receptor Coactivator Assay, LXR beta-LBD (co-activator recruitment; IP and % Emax relative to T0901317)
# Format: biochemical
# reported.conditions: efficacy at max dose in relation to reference T0901317, LXR beta-LBD
Answers are plain numbers, in %.

For every record below, what is its LXR beta actiivty at max dose (%)?
1. CN(C)C(=O)c1ccc(N2CCC(CCCN(C)C(=O)C(O)(c3ccccc3)C(F)(F)F)CC2)cc1Cl (single isomer, unassigned) [Example 4-4]
2. COc1cccc([C@@](O)(C(=O)NCCCC2CCN(c3ccc(C(=O)N(C)C)c(Cl)n3)CC2)C(F)(F)F)c1

Data returned:
[59, 73]
